test system: 186277-243-T-J2-PDC complex spheroids, viability; test: Anticancer human tumor 186277-243-T-J2-PDC patient-derived colon adenocarcinoma cell line growth inhibition [RAS]; details: second compound 0.316 µM; first compound 0.01 µM; active = viability on the fitted dose curve at most 10% of control; inactive = the rest
Thanks in advance; please answer with one of these: true (active), false (inactive)

# example entries with known answers
{"columns": ["compound", "classification"],
 "data": [
  ["C=CC(=O)Nc1cc(Nc2nccc(-c3cn(C)c4ccccc34)n2)c(OC)cc1N(C)CCN(C)C + C=CC(=O)N1CCN(c2nc(OCC3CCCN3C)nc3c(F)c(-c4nc(N)cc(C)c4C(F)(F)F)c(Cl)cc23)C(C)C1", "false"],
  ["Nc1ccn(C2OC(CO)C(O)C2(F)F)c(=O)n1 (stereo not drawn) + C#Cc1c(F)ccc2cc(O)cc(-c3ncc4c(N5CC6CCC(C5)N6)nc(OCC56CCCN5CC(F)C6)nc4c3F)c12", "true"]
]}

# evaluate next
Record request — test call for C=CC(=O)Nc1cc(Nc2nccc(-c3cn(C)c4ccccc34)n2)c(OC)cc1N(C)CCN(C)C + C#Cc1c(F)ccc2cc(O)cc(-c3ncc4c(N5CC6CCC(C5)N6)nc(OCC56CCCN5CC(F)C6)nc4c3F)c12
false

---

test system: 186277-243-T-J2-PDC complex spheroids, viability; test: Anticancer human tumor 186277-243-T-J2-PDC cell line growth inhibition [RAS]; details: second compound 0.000949 µM; first compound 0.1 µM; active = viability on the fitted dose curve at most 10% of control; inactive = the rest;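 note: spheroids exposed to compounds for 7 days before viability read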
Entry note: the call must match one of 1 (yes) for active, 0 (no) for inactive

{"columns": ["compound", "classification"],
 "data": [
  ["CC(C)NCC(C(=O)N1CCN(c2ncnc3c2C(C)CC3O)CC1)c1ccc(Cl)cc1 (stereo not given) + CCn1c(-c2cccnc2C(C)OC)c2c3cc(ccc31)N1CCOC(CC(NC(=O)C(C(C)C)N(C)C(=O)C3(F)CCN(C(=O)C#CC(C)(C)N(C)C)CC3)C(=O)N3CCCC(N3)C(=O)OCC(C)(C)C2)C1", "0 (no)"],
  ["NC1c2ccccc2OC12CCN(c1cnc3c(N4CCCc5ncccc54)n[nH]c3n1)CC2 (stereo not given) + CCn1c(-c2cc(N3CCN(C)CC3)cnc2C(C)OC)c2c3cc(ccc31)-c1csc(n1)CC(NC(=O)C1CC1C)C(=O)N1CCCC(N1)C(=O)OCC(C)(C)C2", "0 (no)"],
  ["Cc1nc(N2CCC3(CC2)COC(C)C3N)c(CO)nc1Sc1ccnc(N)c1Cl (stereo not given) + CCn1c(-c2cccnc2C(C)OC)c2c3cc(ccc31)N1CCOC(CC(NC(=O)C(C(C)C)N(C)C(=O)C3(F)CCN(C(=O)C#CC(C)(C)N(C)C)CC3)C(=O)N3CCCC(N3)C(=O)OCC(C)(C)C2)C1", "0 (no)"],
  ["C=CC(=O)N1CCN(c2nc(OCC3CCCN3C)nc3c(F)c(-c4nc(N)cc(C)c4C(F)(F)F)c(Cl)cc23)C(C)C1 (stereo not given) + CCn1c(-c2cccnc2C(C)OC)c2c3cc(ccc31)N1CCOC(CC(NC(=O)C(C(C)C)N(C)C(=O)C3(F)CCN(C(=O)C#CC(C)(C)N(C)C)CC3)C(=O)N3CCCC(N3)C(=O)OCC(C)(C)C2)C1", "0 (no)"]
]}

I would be grateful if you could indicate the recorded call for CC(Nc1ccc2c(c1)OCCn1cc(N3C(=O)OCC3C(F)F)nc1-2)C(N)=O (stereo not given) + CCn1c(-c2cc(N3CCN(C)CC3)cnc2C(C)OC)c2c3cc(ccc31)-c1csc(n1)CC(NC(=O)C1CC1C)C(=O)N1CCCC(N1)C(=O)OCC(C)(C)C2 .
0 (no)

// outcome(item) with item = Nc1ccn(C2OC(CO)C(O)C2(F)F)c(=O)n1 (stereo not given) + CCn1c(-c2cc(N3CCN(C)CC3)cnc2C(C)OC)c2c3cc(ccc31)-c1csc(n1)CC(NC(=O)C1CC1C)C(=O)N1CCCC(N1)C(=O)OCC(C)(C)C2
1 (yes)
